Population Apoptotic (%) values for the molecules below.
# Test system: Fibroblast
# ASSAY_TEXT: Multiplex assay against human fibroblast
# Assay type: toxicity, cell-based
# TEST_CONDITIONS: 24 h, 1 µM, compound concentration 1 uM, replicate 1

{"MOLECULE": "O=C(O)Cc1ccccc1Nc1c(Cl)cccc1Cl [DICLOFENAC]", "Population Apoptotic (%)": 52}
{"MOLECULE": "Cc1ccc(F)cc1C(=O)Nc1ccc(C(=O)N2Cc3cccn3Cc3ccccc32)c(Cl)c1 [LIXIVAPTAN]", "Population Apoptotic (%)": 50}
{"MOLECULE": "CCNC1(C(N)=O)CCN(c2ncnc3c2nc(-c2ccccc2Cl)n3-c2ccc(Cl)cc2)CC1 [OTENABANT]", "Population Apoptotic (%)": 26}

* * *

# System: Fibroblast
# ASSAY_TEXT: Multiplex assay against human fibroblast
# Type: toxicity, cell-based
# TEST_CONDITIONS: 12 h, 1 µM, compound concentration 1 uM, replicate 2
VALUE_TYPE: Population Tubulin-Different-Phenotype (%)

{"COMPOUND": "Cc1ccc(/C(=C\\CN2CCCC2)c2ccccn2)cc1 [TRIPROLIDINE]", "UNITS_TEXT": "%", "OBSERVED_VALUE": 60}
{"COMPOUND": "CCCC(CCC)C(=O)O [VALPROIC ACID]", "UNITS_TEXT": "%", "OBSERVED_VALUE": 49}
{"COMPOUND": "CN1CCN(c2nc3cc(C(F)(F)F)ccc3n3cccc23)CC1.O=C(O)/C=C\\C(=O)O.O=C(O)/C=C\\C(=O)O", "UNITS_TEXT": "%", "OBSERVED_VALUE": 47}
{"COMPOUND": "CSc1ccccc1N1CCN(CCCCCC(=O)NC2CCCc3ccccc32)CC1.Cl (stereo not drawn)", "UNITS_TEXT": "%", "OBSERVED_VALUE": 74}
{"COMPOUND": "CCCn1c(=O)c2[nH]c(C3CCCC3)nc2n(CCC)c1=O", "UNITS_TEXT": "%", "OBSERVED_VALUE": 50}
{"COMPOUND": "CN1CCN2c3ncccc3Cc3ccccc3C2C1 (stereo not drawn) [MIRTAZAPINE]", "UNITS_TEXT": "%", "OBSERVED_VALUE": 45}
{"COMPOUND": "N[C@@]1(C(=O)O)CO[C@H]2[C@H](C(=O)O)[C@H]21 [LY-379268]", "UNITS_TEXT": "%", "OBSERVED_VALUE": 45}
{"COMPOUND": "CN(C)c1ccnc2sc3c(=O)n(N4CCCCCC4)cnc3c12", "UNITS_TEXT": "%", "OBSERVED_VALUE": 44}
{"COMPOUND": "CN(C)CCCc1cc(C(=O)Nc2ccc(-c3ccncc3)cc2)ccc1O.Cl.Cl", "UNITS_TEXT": "%", "OBSERVED_VALUE": 40}
{"COMPOUND": "CC(C)(C)c1ccc(S(=O)(=O)Nc2ccc(Cl)cc2C(=O)c2cc[n+]([O-])cc2)cc1 [VERCIRNON]", "UNITS_TEXT": "%", "OBSERVED_VALUE": 41}
{"COMPOUND": "CC[C@H]1OC(=O)[C@H](C)[C@@H](O[C@H]2C[C@@](C)(OC)[C@@H](O)[C@H](C)O2)[C@H](C)[C@@H](O[C@@H]2O[C@H](C)C[C@H](N(C)C)[C@H]2O)[C@@]2(C)CC(C)=C(O2)[C@H](C)[C@@H](O)[C@]1(C)O", "UNITS_TEXT": "%", "OBSERVED_VALUE": 53}
{"COMPOUND": "CSCC[C@H](NC=O)C(=O)N[C@@H](CC(C)C)C(=O)N[C@@H](Cc1ccccc1)C(=O)O", "UNITS_TEXT": "%", "OBSERVED_VALUE": 39}
{"COMPOUND": "O=C1COc2nccc(-c3ccccc3F)c2CN1Cc1cc(C(F)(F)F)cc(C(F)(F)F)c1", "UNITS_TEXT": "%", "OBSERVED_VALUE": 32}
{"COMPOUND": "CNC[C@H](O)c1ccc(O)c(O)c1 [EPINEPHRINE]", "UNITS_TEXT": "%", "OBSERVED_VALUE": 42}
{"COMPOUND": "C[C@@H]1C[C@H]2[C@@H]3CCC4=CC(=O)C=C[C@]4(C)[C@@]3(F)[C@@H](O)C[C@]2(C)[C@@]1(O)C(=O)CO [DEXAMETHASONE]", "UNITS_TEXT": "%", "OBSERVED_VALUE": 52}
{"COMPOUND": "C[C@H]1[C@H]2CC[C@H]3[C@@H]4CC=C5C[C@@H](N(C)C)CC[C@]5(C)[C@H]4CC[C@]23CN1C [CONESSINE]", "UNITS_TEXT": "%", "OBSERVED_VALUE": 46}
{"COMPOUND": "O=C(NCCO)c1cccc(-c2cc(Nc3ccc(OC(F)(F)F)cc3)ncn2)c1", "UNITS_TEXT": "%", "OBSERVED_VALUE": 46}
{"COMPOUND": "CCOc1c2c(c(OCC)c3ncccc13)CN(c1ccc(CS(=O)(=O)NC(=O)Cc3ccccc3OC)cc1C)C2=O", "UNITS_TEXT": "%", "OBSERVED_VALUE": 62}
